# Test system: NCI-H23 lung
# Test Summary: NCI tumour cell line growth inhibition, 48 h; in the data active = GI50 below about 0.43 µM; inactive = the rest
The categories you may choose from are active, inactive

What did the test return for COc1ccc2c(CN3CCC(CO)CC3)cc3cc4c(cc3c2c1)OCO4 ? active

Given CN(C)CCCNC(=O)c1cc(NC(=O)c2cc(NC(=O)CCCN3c4ccccc4C=Cc4ccccc43)cn2C)cn1C , state the outcome it received in this test. inactive

Short answer needed: outcome of this test for C=C(CN1CCc2ccccc2C1)c1ccc(/C=C/C(=O)Nc2ccccc2N)cc1 ? inactive

How was CCOC(=O)Oc1c(OC)cc(C(=O)c2ccc(OC)c(OC(=O)CCl)c2OC)cc1OC classified in this test? inactive

For CCN(Cc1ccc(F)cc1F)c1ccc(CO)c(Cl)c1 , what call appears in the results of this test? inactive
